Hi there, I'd appreciate the recorded TGI for every entry that follows.
- System: A549 NSCLC
- experiment.description: NCI tumour cell line growth inhibition, 48 h
Use µM as the unit, but write only the number.

Asked: Provide measured TGI on A549 NSCLC for CCCCC/C=C1\CC(CO)(COC(=O)CC(C(C)C)C(C)C)OC1=O (centres undefined) please.
Given back: 28.8

Asked: Specify the recorded TGI for `CN(CCO)C1CCN(c2ccc(Nc3ncc4c5ccnc(F)c5n(C5CCCC5)c4n3)nc2)CC1` , system: A549 NSCLC.
Given back: 7.9

Asked: Check A549 NSCLC data and give TGI for `CC(C)(C)CC(C)(C)c1ccc(OCCSC(=N)N)cc1` .
Given back: 4.43

Asked: Check A549 NSCLC data and give TGI for `N=C1N(c2ccccc2)C(=S)C(=Nc2ccccc2)N1c1ccccc1` .
Given back: 42.1

---

- Test system: K-562 leukemia
- experiment.description: NCI tumour cell line growth inhibition, 48 h
reported.property: GI50

Asked: Fill in GI50 for record CN(C)c1ccc(O)c2c1CC1CC3C(N(C)C)C(=O)C(C(N)=O)=C(O)C3(O)C(=O)C1=C2O (stereo not given)
Given back: 16800 nM

Asked: Specify measured GI50 for `Cc1nn(-c2ccccc2)c(-n2ccnc2)c1/C=N/Nc1nc(-c2ccc(Cl)c(Cl)c2)cs1` .
Given back: 2490 nM

Asked: For the compound `CC(C)(C)CC(C)(C)c1ccc(OCCSC(=N)N)cc1` , report GI50.
Given back: 833 nM

Asked: For the compound `CCN(CC)CCCN1C(=O)c2c(c(C)c3c(oc4ccc(O)cc43)c2C)C1=O` , give its reported GI50.
Given back: 1710 nM

Asked: Report GI50, nothing else, for this compound: `C=C1C(=O)O[C@H]2[C@H]1CC/C(COC(=O)NCc1[nH]nc3ccccc13)=C\CC[C@@]1(C)O[C@@H]21`
Given back: 473 nM

---

- Tested on: SNB-19 CNS
- experiment.description: NCI tumour cell line growth inhibition, 48 h
Kindly supply the reported TGI values for the records listed here.

Asked: State recorded TGI with SNB-19 CNS, entry `CCOC(=O)c1oc2c(OC)cc(Cl)c3c2c1CCC3` , no comment.
Given back: 97.6 µM

Asked: # lookup: SNB-19 CNS TGI, key = `CC1(C)[C@@H](Cn2nnc3c(N)ncnc32)CC[C@@]1(C)CO`
Given back: > 100 µM

Asked: Using SNB-19 CNS as the test system, report measured TGI of `CC[N+](C)(CC)CCNC(=O)C(O)(c1ccccc1)c1ccccc1` .
Given back: > 100 µM

Asked: Fill in: TGI on SNB-19 CNS, entry `CCCCSSC(=S)N(CC)CC`
Given back: > 100 µM

Asked: Quote SNB-19 CNS TGI for entry `CCN(CC)c1ccc2cc(C(=O)Nc3ccccc3OC)c(=N)oc2c1` .
Given back: > 100 µM

Asked: Give TGI for CCCCC/C=C1\CC(CO)(COC(=O)CC(C(C)C)C(C)C)OC1=O (stereo not drawn) tested on SNB-19 CNS.
Given back: 30.3 µM

Asked: For SNB-19 CNS, give TGI of the listed compound: `NS(=O)(=O)c1ccc(Nc2ncc(-c3ccccc3)o2)cc1`
Given back: > 25 µM

Asked: Send back SNB-19 CNS TGI of `O=C(/C=C\c1ccc(-c2ccccc2)cc1)c1cccs1` only.
Given back: > 100 µM

Asked: GET TGI | system: SNB-19 CNS | item: `COc1cc(-c2cc(/C=C3\C(=O)Nc4ccc(Cl)cc43)[nH]n2)cc(OC)c1OC`
Given back: > 100 µM

Asked: # return TGI for `COc1ccc(CN2CCc3c(Sc4ccccc4)nc(N)nc3C2=O)c(OC)c1` , test system: SNB-19 CNS
Given back: 55.3 µM

Asked: For SNB-19 CNS, give the measured TGI of the entry CC(=O)/C=C/CCC(=O)/C=C/C(=O)OC(CCC(=O)/C=C/C(=O)O)CC(C)=O (stereo not drawn)
Given back: > 100 µM

Asked: Write down the reported TGI (system: SNB-19 CNS) of `CSc1nn2c(-c3ccc4ccccc4c3)ccnc2c1C#N`
Given back: > 100 µM

Asked: Output reported TGI of the compound `COc1c(-c2nc3nc(N4CCN(C)CC4)ccc3[nH]2)cc(OC)c2c1nc(CO)n2C` on SNB-19 CNS.
Given back: > 100 µM

Asked: Answer with TGI of CO[C@]12CC(=O)C3(C(C[C@H]4CC5CCC6=CC(=O)CC[C@]6(OC(C)=O)C5C[C@@]43C)C1)C1C[C@H]3[C@@H]4CCC5=CC(=O)CC[C@]5(OC(C)=O)[C@H]4CC[C@]3(C)C12 (stereo partly drawn) measured for SNB-19 CNS.
Given back: > 100 µM

Asked: Provide TGI, recorded with SNB-19 CNS, of Cn1cc2ccccc2c1-c1nc(F)nc(Oc2ccc3c(c2)CC[C@@H]2C3CC[C@@]3(C)C2CC[C@@H]3O)n1 (stereo partly drawn)
Given back: 35.5 µM

Asked: Give reported TGI for `CC(C)(C)C1=NC(=S)SC2=NC(=O)C3(NN21)c1ccccc1-c1ccccc13` (SNB-19 CNS)
Given back: > 10 µM

Asked: Consider the compound COC(=O)C(C)(Cc1ccc2c(c1)nnn2C(C)=O)NC(C)=O (stereo not drawn) tested on SNB-19 CNS; state its TGI.
Given back: > 100 µM

Asked: Quote SNB-19 CNS TGI for entry COC(=O)C12C3C4C1C1C2C3C41C(=O)O (stereo not drawn) .
Given back: > 100 µM

Asked: GET TGI | system: SNB-19 CNS | item: C[Si]1(C)C(c2ccccc2)=CC2C(c3ccccc3)(c3ccccc3)OC21c1ccccc1 (stereo not drawn)
Given back: > 100 µM

Asked: Give reported TGI for `O=c1ccc(N=Nc2ccccc2)ccc1Cl` (SNB-19 CNS)
Given back: 91.4 µM

Asked: With SNB-19 CNS as the test system, provide measured TGI for this compound: `COc1cccc(NC(=O)CC(=O)Nc2cccc(OC)c2)c1`
Given back: > 100 µM

Asked: GET TGI where system = SNB-19 CNS and item = CC(=O)NC(C)(C)C1CC=C(C)/C(=N\O)C1 (stereo not drawn)
Given back: > 100 µM

Asked: Report measured TGI on SNB-19 CNS; entry: `O=C(O)C1(C(=O)O)CC1`
Given back: > 100 µM

---

- Tested on: HCT-15 colon
- experiment.description: NCI tumour cell line growth inhibition, 48 h
reported.property: TGI

Asked: Tell me TGI reported for `COC(=O)c1c2c(c(C)[n+]([O-])c1C)C(=O)C(NCc1cccc(Cl)c1)=CC2=O`
Given back: 2.75 µM

Asked: Please look at this compound and report its TGI: `N#Cc1nc(-c2cccnc2)oc1N`
Given back: > 100 µM

Asked: Complete the entry with TGI for `CCOC(=O)c1oc2c(OC)cc(Cl)c3c2c1CCC3`
Given back: > 100 µM

Asked: Please list TGI recorded for the compound `Cc1ccc(NS(=O)(=O)c2ccc(-c3cnc(C4CC4)o3)cc2)cc1C`
Given back: > 33.2 µM

Asked: Let me know recorded TGI for `O=S(=O)(O)c1ccc2c(N=Nc3cccc4ccccc34)c(O)c(S(=O)(=O)O)cc2c1` , thanks.
Given back: > 100 µM

Asked: # return recorded TGI for input `COC(=O)[C@@H]1CCCN1C(=O)[C@@H]1CCCN1C(=O)[C@H](Cc1ccccc1)NC(=S)Nc1cc(C(F)(F)F)cc(C(F)(F)F)c1`
Given back: > 100 µM

Asked: Let me know recorded TGI for `O=c1cc(NNc2ccc3ccccc3c2)[nH]c(=S)[nH]1` , thanks.
Given back: 34.1 µM

Asked: Specify reported TGI for the compound shown: `C=C1C[C@]23CC[C@@H]4C(CO)(CO)CC(=O)C[C@]4(C)[C@@H]2CC[C@H]1C3`
Given back: > 100 µM

Asked: Recall and state the measured TGI for `COC(=O)Cc1ccc(Oc2nc3ccccc3nc2-c2cccs2)cc1` .
Given back: > 100 µM

Asked: Identify TGI associated with the compound `CC[C@@]1(O)C(=O)OCc2c1cc1n(c2=O)Cc2cc3c([N+](=O)[O-])c(OC)ccc3nc2-1`
Given back: 3.71 µM

---

- Test system: COLO 205 colon
- experiment.description: NCI tumour cell line growth inhibition, 48 h
Task for the reader: assign each of the following molecules its reported TGI.

Asked: Consider the molecule `CN1CCN(C(=S)N(C(=O)c2cccs2)c2ccccc2)CC1` . State its measured TGI.
Given back: > 100 µM

Asked: Give TGI for the following molecule: C=C(C)[C@@H]1C/C=C(\COC(=O)[C@H](OC(C)=O)C(NC(=O)c2ccccc2)c2ccccc2)CC[C@H]2O[C@]2(C)CC/C=C(\C)CC1 (some centres undefined)
Given back: 25.8 µM

Asked: For the molecule `CN=c1oc2ccccc2cc1C(N)=O` , give its measured TGI value.
Given back: > 100 µM

Asked: Identify measured TGI associated with `O=S(=O)(O)c1ccc2c(N=Nc3cccc4ccccc34)c(O)c(S(=O)(=O)O)cc2c1`
Given back: > 100 µM
